Tested on: Escherichia coli isolates
Test: MIC of cephalosporins alone or with clavulanate/tazobactam
Format: cell-based
Details: AECO1169 (CTX-M-1, TEM-OSBL), clavulanate 2:1, tazobactam 4 μg/mL
REPORTED METRIC: MIC

COMPOUND: CO/N=C(\C(=O)N[C@@H]1C(=O)N2C(C(=O)[O-])=C(C[N+]3(C)CCCC3)CS[C@H]12)c1csc(N)n1 [Cefepime, cefepime]
MIC: > 32 µg/mL
--
COMPOUND: COCC1=C(C(=O)O)N2C(=O)[C@@H](NC(=O)/C(=N\OC)c3csc(N)n3)[C@H]2SC1
MIC: > 64 µg/mL

Okay, next one:
Input line: Any idea what MIC came out for C[C@]1(Cn2ccnn2)[C@H](C(=O)O)N2C(=O)C[C@H]2S1(=O)=O on Escherichia coli isolates?
Output line: > 64 µg/mL

Taken from patent US20180015100A1.
